experimental.details: Proteolytic stability in 25% human serum (UPLC-MS)
Assay type: in vitro ADME
protocol.conditions: 100 μM peptide, 25% human serum in PBS, 37° C.; read-out: Serum t1/2

>  <smiles.data>
CC(=O)N[C@@H](Cc1ccc(O)cc1)C(=O)NCC(=O)N[C@@H](CCCNC(=N)N)C(=O)N[C@@H](CCCCN)C(=O)N[C@@H](CCCCN)C(=O)N[C@@H](CCCNC(=N)N)C(=O)N[C@@H](CCCNC(=N)N)C(=O)N[C@@H](CCC(N)=O)C(=O)N[C@@H](CCCNC(=N)N)C(=O)N[C@@H](CCCNC(=N)N)C(=O)N[C@@H](CCCNC(=N)N)C(=O)NCCOCCOCC(=O)N[C@@H](CCCCNC(=O)c1ccc2c(c1)C(=O)OC21c2ccc3cc(O)ccc3c2Oc2c1ccc1cc(O)ccc21)C(N)=O

>  <half-life at 100 μM>
< 30 min

$$$$
